target: Kappa-type opioid receptor (Cavia porcellus); experiment: Binding affinity for kappa opioid receptor by displacing [3H]U-69593 was determined
Sequence (P41144 whole entry): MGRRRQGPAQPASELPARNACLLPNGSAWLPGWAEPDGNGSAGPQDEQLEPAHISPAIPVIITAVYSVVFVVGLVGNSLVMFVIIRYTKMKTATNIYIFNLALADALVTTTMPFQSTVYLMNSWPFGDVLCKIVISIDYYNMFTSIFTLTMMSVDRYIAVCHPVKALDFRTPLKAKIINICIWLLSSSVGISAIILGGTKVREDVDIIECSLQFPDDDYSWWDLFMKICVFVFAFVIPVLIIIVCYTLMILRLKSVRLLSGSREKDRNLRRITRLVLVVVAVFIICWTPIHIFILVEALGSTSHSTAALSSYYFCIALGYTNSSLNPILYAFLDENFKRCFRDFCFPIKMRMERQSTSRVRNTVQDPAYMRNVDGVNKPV
Listed compounds paired with reported Ki
Use nM as the unit, but write only the number.

| compound | units text | observed value |
| --- | --- | --- |
| C/C=C/C(=O)N1CCC23c4c5ccc(O)c4O[C@H]2c2[nH]c4ccccc4c2[C@H](C)C3C1C5 (some centres not stated) | nM | 120 |

**Query** Look up Ki: C[C@H]1c2c([nH]c3ccccc23)[C@@H]2Oc3c(O)ccc4c3C23CCN(CC2CC2)C(C4)C13 (some centres not stated)
**Result** 36

###

experiment: Binding affinity for gamma-S binding assay
measurement name: Ki (nM)
Use nM as the unit, but write only the number.

The following compounds have reported results that may help.
| compound | measurement name | units text | observed value |
| --- | --- | --- | --- |
| CN1CC[C@]23c4c5ccc(O)c4O[C@H]2c2[nH]c4ccccc4c2C[C@H]3[C@H]1C5 | Ki | nM | 15 |
| CCCC[C@H]1c2c([nH]c3ccccc23)[C@@H]2Oc3c(O)ccc4c3C23CCN(C)C(C4)C13 (stereo not given in full) | Ki | nM | 46 |
| COc1ccc2c3c1O[C@H]1c4[nH]c5ccccc5c4[C@H](C)C4C(C2)N(C)CCC341 (stereo not given in full) | Ki | nM | 330 |
| COc1ccc2c3c1O[C@H]1c4[nH]c5ccccc5c4CC4C(C2)N(C)CCC341 (stereo not given in full) | Ki | nM | 290 |

Then there is this compound:
**Query** Look up Ki: C[C@H]1c2c([nH]c3ccccc23)[C@@H]2Oc3c(O)ccc4c3C23CCN(C)C(C4)C13 (stereo not given in full)
**Result** 49

###

Listed compounds paired with reported log10 Ki
molecular target: Delta-type opioid receptor (Rattus norvegicus, UniProt P33533); assay: Binding affinity for delta opioid receptor by displacing [3H]DADL was determined
Sequence (P33533 whole entry): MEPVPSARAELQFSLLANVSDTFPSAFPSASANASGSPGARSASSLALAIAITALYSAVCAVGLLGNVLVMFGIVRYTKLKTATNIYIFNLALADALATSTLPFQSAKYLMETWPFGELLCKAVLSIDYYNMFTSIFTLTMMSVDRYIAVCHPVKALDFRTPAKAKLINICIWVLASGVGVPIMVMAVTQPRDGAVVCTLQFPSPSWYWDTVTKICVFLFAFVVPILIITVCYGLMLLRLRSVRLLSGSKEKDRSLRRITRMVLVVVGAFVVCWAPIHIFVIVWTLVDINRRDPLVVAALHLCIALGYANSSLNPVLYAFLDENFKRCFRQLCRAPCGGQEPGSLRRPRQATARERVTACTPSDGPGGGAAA
All values: base-10 log of Ki in nM.

The following compounds have reported results that may help.
| compound | observed value |
| --- | --- |
| C/C=C/C(=O)N1CCC23c4c5ccc(O)c4O[C@H]2c2[nH]c4ccccc4c2[C@H](C)C3C1C5 (stereo partly drawn) | 0.36 |
| C[C@H]1c2c([nH]c3ccccc23)[C@@H]2Oc3c(O)ccc4c3C23CCN(C)C(C4)C13 (stereo partly drawn) [Indole Derivative] | -0.15 |
| C[C@H]1c2c([nH]c3ccccc23)[C@@H]2Oc3c(O)ccc4c3C23CCN(CC2CC2)C(C4)C13 (stereo partly drawn) | 0.36 |

**Query** Look up log10 Ki: CCCC[C@H]1c2c([nH]c3ccccc23)[C@@H]2Oc3c(O)ccc4c3C23CCN(C)C(C4)C13 (stereo partly drawn) [Indole Derivative]
**Result** 1.34

**Query** Look up log10 Ki: COc1ccc2c3c1O[C@H]1c4[nH]c5ccccc5c4CC4C(C2)N(C)CCC341 (stereo partly drawn) [Indole Derivative]
**Result** 1.98

**Query** Look up log10 Ki: CCCC[C@H]1c2c([nH]c3ccccc23)[C@@H]2Oc3c(OC)ccc4c3C23CCN(C)C(C4)C13 (stereo partly drawn) [Indole Derivative]
**Result** 2.57

**Query** Look up log10 Ki: COc1ccc2c3c1O[C@H]1c4[nH]c5ccccc5c4[C@H](C)C4C(C2)N(C)CCC341 (stereo partly drawn) [Indole Derivative]
**Result** 1.43

**Query** Look up log10 Ki: CN1CC[C@]23c4c5ccc(O)c4O[C@H]2c2[nH]c4ccccc4c2C[C@H]3[C@H]1C5
**Result** 0.38

Sourced from BindingDB's records for doi:10.1016/s0960-894x(01)00689-8
